Assignment: determine reported HUVEC survival (n = 1) 1:10 dilution of supernatant (RLU) for the given binders.
target: human KDR (VEGFR2) on cells (human, UniProt P35968 20-1356); assay: cell-based or functional assay
Sequence (P35968 20-1356): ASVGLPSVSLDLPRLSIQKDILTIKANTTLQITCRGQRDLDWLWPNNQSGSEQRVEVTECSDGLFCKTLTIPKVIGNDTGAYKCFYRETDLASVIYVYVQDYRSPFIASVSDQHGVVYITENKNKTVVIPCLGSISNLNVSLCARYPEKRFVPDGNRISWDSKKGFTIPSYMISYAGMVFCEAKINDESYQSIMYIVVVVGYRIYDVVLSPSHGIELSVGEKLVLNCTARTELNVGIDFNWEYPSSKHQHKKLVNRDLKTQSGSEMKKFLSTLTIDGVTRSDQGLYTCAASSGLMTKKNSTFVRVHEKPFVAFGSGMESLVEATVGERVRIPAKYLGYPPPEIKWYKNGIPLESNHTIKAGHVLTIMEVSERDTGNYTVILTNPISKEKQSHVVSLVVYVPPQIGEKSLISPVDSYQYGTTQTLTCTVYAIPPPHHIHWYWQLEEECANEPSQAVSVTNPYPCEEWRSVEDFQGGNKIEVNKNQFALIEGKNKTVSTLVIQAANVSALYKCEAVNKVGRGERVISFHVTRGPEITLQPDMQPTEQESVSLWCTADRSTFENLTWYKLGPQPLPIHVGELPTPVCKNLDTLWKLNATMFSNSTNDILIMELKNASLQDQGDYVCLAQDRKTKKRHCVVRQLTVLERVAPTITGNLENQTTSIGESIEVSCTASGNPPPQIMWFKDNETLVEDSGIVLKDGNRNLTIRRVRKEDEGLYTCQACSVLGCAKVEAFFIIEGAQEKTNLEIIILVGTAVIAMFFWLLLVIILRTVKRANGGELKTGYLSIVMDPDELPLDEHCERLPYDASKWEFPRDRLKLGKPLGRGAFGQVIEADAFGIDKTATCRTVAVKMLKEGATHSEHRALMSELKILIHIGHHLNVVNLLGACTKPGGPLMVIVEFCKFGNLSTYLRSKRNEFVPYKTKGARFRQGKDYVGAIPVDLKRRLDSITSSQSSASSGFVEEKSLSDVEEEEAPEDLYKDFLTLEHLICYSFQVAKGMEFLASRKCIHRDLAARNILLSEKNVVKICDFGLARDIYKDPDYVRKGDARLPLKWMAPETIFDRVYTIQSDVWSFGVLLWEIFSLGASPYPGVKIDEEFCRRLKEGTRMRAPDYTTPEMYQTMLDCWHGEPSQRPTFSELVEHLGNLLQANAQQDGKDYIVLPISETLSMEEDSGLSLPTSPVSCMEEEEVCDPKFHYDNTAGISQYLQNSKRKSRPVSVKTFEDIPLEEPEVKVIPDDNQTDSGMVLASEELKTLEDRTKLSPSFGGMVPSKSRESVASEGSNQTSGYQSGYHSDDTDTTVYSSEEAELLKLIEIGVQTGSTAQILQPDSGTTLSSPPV
Numeric answer only, unit RLU assumed.

Need HUVEC survival (n = 1) 1:10 dilution of supernatant (RLU) of anti-KDR monoclonal antibody 21H6 (antibody, V domains shown, Fully human mAb from XenoMouse; hybridoma supernatant) VH: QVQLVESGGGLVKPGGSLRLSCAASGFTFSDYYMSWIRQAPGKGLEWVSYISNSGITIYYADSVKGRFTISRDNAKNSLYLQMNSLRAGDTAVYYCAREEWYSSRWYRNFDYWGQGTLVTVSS VL: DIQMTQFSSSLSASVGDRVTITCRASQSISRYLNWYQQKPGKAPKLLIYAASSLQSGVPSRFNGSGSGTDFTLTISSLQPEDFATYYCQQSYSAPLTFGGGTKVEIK , thanks.
10200

How about this binder: anti-KDR monoclonal antibody 21A1 (antibody, V domains shown, Fully human mAb from XenoMouse (IgG2 or IgG4 strain); hybridoma supernatant) VH: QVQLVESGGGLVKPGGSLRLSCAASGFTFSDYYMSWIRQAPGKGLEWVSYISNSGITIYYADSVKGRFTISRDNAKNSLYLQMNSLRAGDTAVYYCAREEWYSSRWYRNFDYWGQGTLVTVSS VL: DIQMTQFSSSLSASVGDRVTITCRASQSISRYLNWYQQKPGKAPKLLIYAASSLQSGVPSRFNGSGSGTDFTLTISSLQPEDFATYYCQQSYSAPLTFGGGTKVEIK
8870

How about this binder: anti-KDR monoclonal antibody 29H3 (antibody, V domains shown, Fully human mAb from XenoMouse (IgG2 or IgG4 strain); hybridoma supernatant) VH: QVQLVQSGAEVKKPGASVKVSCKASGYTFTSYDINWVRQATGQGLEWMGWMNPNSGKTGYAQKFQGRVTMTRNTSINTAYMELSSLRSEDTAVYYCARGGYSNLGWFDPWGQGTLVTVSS VL: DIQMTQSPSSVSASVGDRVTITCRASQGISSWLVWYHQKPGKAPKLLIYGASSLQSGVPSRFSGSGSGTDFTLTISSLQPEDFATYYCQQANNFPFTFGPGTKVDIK
32700
